Below are pIC50 measurements against Substance-P receptor (Rattus norvegicus, UniProt P14600) drawn from the literature.
Sequence (P14600 whole entry): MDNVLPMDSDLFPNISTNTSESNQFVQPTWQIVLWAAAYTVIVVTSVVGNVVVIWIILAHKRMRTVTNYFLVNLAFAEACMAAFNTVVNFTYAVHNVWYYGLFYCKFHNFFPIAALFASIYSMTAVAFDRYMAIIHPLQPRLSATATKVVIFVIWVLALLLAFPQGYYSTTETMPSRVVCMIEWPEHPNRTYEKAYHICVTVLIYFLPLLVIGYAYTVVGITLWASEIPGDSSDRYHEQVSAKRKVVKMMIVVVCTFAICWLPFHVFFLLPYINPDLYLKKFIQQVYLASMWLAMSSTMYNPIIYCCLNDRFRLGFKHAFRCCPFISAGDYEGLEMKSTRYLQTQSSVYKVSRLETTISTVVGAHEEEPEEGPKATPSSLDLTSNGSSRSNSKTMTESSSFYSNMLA
Lab note — pIC50 values are minus log10 of concentrations in M.

- CCn1c(/C=C/C=C2/N(C)c3ccccc3C2(C)C)[n+](CCCO)c2nc3ccccc3nc21: 6.46
- CCn1c(/C=C/C=C2\N(C)c3ccccc3C2(C)C)[n+](CC)c2cc3ccccc3cc21.[Cl-]: 6.41
- CN(C)c1ccccc1CC(=O)N1C[C@H]2[C@@H](C1)C(c1ccccc1)(c1ccccc1)SC[C@@H]2O: 7.11

# assay system Substance-P receptor (Rattus norvegicus, UniProt P14600): give pIC50 of `COc1ccccc1CN(C[C@@H](Cc1c[nH]c2ccccc12)NC(=O)CN1CCN(C2CCCCC2)CC1)C(C)=O`
8.82

# assay system Substance-P receptor (Rattus norvegicus, UniProt P14600): give pIC50 of `CCn1c(/C=C/C=C2/N(C)c3ccccc3C2(C)C)[n+](CC)c2nc3cc(Cl)c(Cl)cc3nc21`
5.96

# assay system Substance-P receptor (Rattus norvegicus, UniProt P14600): give pIC50 of CCn1c(/C=C/C=C2\C3C=CCc4cccc(c43)N2C)[n+](CC)c2nc3ccccc3nc21 (centres undefined)
6.07

# assay system Substance-P receptor (Rattus norvegicus, UniProt P14600): give pIC50 of `CCN1/C(=C\C=C\c2n(CC)c3cc4ccccc4cc3[n+]2CC)C(C)(C)c2ccccc21`
6.44

# assay system Substance-P receptor (Rattus norvegicus, UniProt P14600): give pIC50 of `CCn1c(/C=C/C=C2/N(C)c3ccccc3C2(C)C)[n+](CC(N)=O)c2nc3ccccc3nc21`
5.70

# assay system Substance-P receptor (Rattus norvegicus, UniProt P14600): give pIC50 of `CCn1c(/C=C/C=C2\N(C)c3ccccc3C2(C)C)[n+](CCO)c2cc3ccccc3cc21`
6.35

# assay system Substance-P receptor (Rattus norvegicus, UniProt P14600): give pIC50 of CN(C)c1ccccc1CC(=O)N1C[C@@H]2C(=O)C[S+]([O-])C(c3ccccc3)(c3ccccc3)[C@@H]2C1 (some centres undefined)
6.33

# assay system Substance-P receptor (Rattus norvegicus, UniProt P14600): give pIC50 of CSCC[C@H](NC(=O)[C@H](CC(C)C)NC(=O)Cc1noc([C@H](Cc2ccccc2)NC(=O)[C@H](Cc2ccccc2)NC(=O)[C@H](CCC(N)=O)NC(=O)[C@H](CCC(N)=O)NC(=O)[C@@H]2CCCN2C(=O)[C@H](CCCCN)NC(=O)[C@@H]2CCCN2C(=O)[C@@H](N)CCCN=C(N)N)n1)C(N)=O (stereo in doubt; form 2)
6.51

# assay system Substance-P receptor (Rattus norvegicus, UniProt P14600): give pIC50 of CN(C)c1ccccc1CC(=O)N1CC2C(=O)CSC(c3ccccc3)(c3ccccc3)C2C1 (centres undefined)
7.39

# assay system Substance-P receptor (Rattus norvegicus, UniProt P14600): give pIC50 of `CCn1c(/C=C/C=C2/N(CCO)c3ccccc3C2(C)C)[n+](CC)c2nc3ccccc3nc21`
6.00

====

Below are IC50 measurements against Substance-P receptor (Rattus norvegicus) drawn from the literature.
Write down the numeric answer in nM and omit the unit.

• CCN1/C(=C\C=C2/CCC[n+]3c2n(CC)c2cc4ccccc4cc23)Sc2ccccc21 = 1300
• CCn1c(/C=C/C=C2/N(C)c3ccccc3C2(C)C)[n+](CCCN(C)C)c2nc3ccccc3nc21 = 1300
• COc1ccccc1[C@H](C)C(=O)N1CC2[C@@H](C1)C(c1ccccc1)(c1ccccc1)CC[S+]2[O-] (stereo partly drawn) = 10
• CCOC(=O)CCC[n+]1c(/C=C/C=C2/N(C)c3ccccc3C2(C)C)n(CC)c2nc3ccccc3nc21 = 850
• COc1ccc(CN(CC(Cc2c[nH]c3ccccc23)NC(=O)CN2CCN(c3ccccc3)CC2)C(C)=O)cc1 (stereo not drawn) = 1100

# return recorded IC50 for entry COc1ccccc1CN(CC(Cc1c[nH]c2ccccc12)NC(=O)CN1CCN(c2ccccc2)CC1)C(=O)CN(C)C (stereo not drawn)
480

# return recorded IC50 for entry `CCn1c(/C=C/C=C2/N(C)c3ccccc3C2(C)C)[n+](CCCOC(C)=O)c2nc3ccccc3nc21`
410

# return recorded IC50 for entry `CCn1c2[n+](c3cc4ccccc4cc31)CCC2=C/C=C1\N(C)c2ccccc2C1(C)C`
790
